- testedTarget: T1, Pin3, Q06449
- T1 sequence (Q06449 53-122, looked up): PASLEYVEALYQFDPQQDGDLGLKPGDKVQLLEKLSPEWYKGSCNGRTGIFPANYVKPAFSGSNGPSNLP
- assay: SPOT array
- measurementSetup: median of control spots 2171
readoutKind: SPOT intensity

binder=NENKKLPPAPTVFGL readoutvalue=0
binder=VDFTLPPPPPPPGLD readoutvalue=0
binder=PSRRAPLQLPQLVNK readoutvalue=5

A: FVLRYYILIPHEQWD
B: LKVTPGRRAPTISKI
C: AAAPKHAPPPVPNET
Rank the 3 binders: largest SPOT intensity first, smallest last. Put the labels in the order asked and list them.
B, A, C
(B: 14, A: 9, C: 0)
